assay: Plasma half-life after peroral administration to mice; assay type: ADME, organism-based; settings: mouse, po
measured_property: half-life (h)
One number for each entry, in h.

[
  {
    "test_smiles": "Cc1c(F)c(N2C[C@H]3C[C@@H]2CN3)nc2c1c(=O)c(C(=O)O)cn2C1CC1",
    "measured_property": "half-life",
    "readout_units": "h",
    "experimental_result": 1.28
  },
  {
    "test_smiles": "CN1C[C@H]2C[C@@H]1CN2c1nc2c(cc1F)c(=O)c(C(=O)O)cn2C(C)(C)C",
    "measured_property": "half-life",
    "readout_units": "h",
    "experimental_result": 1.33
  },
  {
    "test_smiles": "CC(C)(C)n1cc(C(=O)O)c(=O)c2cc(F)c(N3C[C@H]4C[C@@H]3CN4)nc21",
    "measured_property": "half-life",
    "readout_units": "h",
    "experimental_result": 1.6
  },
  {
    "test_smiles": "C[C@H]1N[C@@H]2C[C@H]1N(c1nc3c(cc1F)c(=O)c(C(=O)O)cn3C(C)(C)C)C2.Cl",
    "measured_property": "half-life",
    "readout_units": "h",
    "experimental_result": 0.733
  },
  {
    "test_smiles": "C[C@H]1[C@H]2C[C@H](CN2)N1c1nc2c(cc1F)c(=O)c(C(=O)O)cn2C(C)(C)C.Cl",
    "measured_property": "half-life",
    "readout_units": "h",
    "experimental_result": 1.08
  }
]

# batch size: 3; output half-life per entry
1. Cc1c(F)c(N2C[C@H]3C[C@@H]2[C@H](C)N3)nc2c1c(=O)c(C(=O)O)cn2C1CC1.Cl
2. C[C@@H]1[C@H]2C[C@H](CN2)N1c1nc2c(cc1F)c(=O)c(C(=O)O)cn2C(C)(C)C.Cl
3. C[C@@H]1N[C@@H]2C[C@H]1N(c1nc3c(cc1F)c(=O)c(C(=O)O)cn3C(C)(C)C)C2.Cl

Result ::
1: 4.2; 2: 0.8; 3: 2.63

###

assay: Percent urinary recovery in 24 hr after peroral administration to mice; assay type: ADME, organism-based; details: mouse, urine, po; read-out: UR
Flag rule - dose excreted at 24 h less than 20% flags 1.0; the remaining entries get 0.0.

Observe how each entry below is paired with its result.
[
  {
    "test_smiles": "C[C@H]1N[C@@H]2C[C@H]1N(c1nc3c(cc1F)c(=O)c(C(=O)O)cn3C(C)(C)C)C2.Cl",
    "classification": 1.0
  },
  {
    "test_smiles": "C[C@@H]1N[C@@H]2C[C@H]1N(c1nc3c(cc1F)c(=O)c(C(=O)O)cn3C(C)(C)C)C2.Cl",
    "classification": 1.0
  },
  {
    "test_smiles": "CN1C[C@H]2C[C@@H]1CN2c1nc2c(cc1F)c(=O)c(C(=O)O)cn2C(C)(C)C",
    "classification": 1.0
  }
]

Query :: Hi there! Is dose excreted at 24 h for C[C@@H]1[C@H]2C[C@H](CN2)N1c1nc2c(cc1F)c(=O)c(C(=O)O)cn2C(C)(C)C.Cl below 20%, do you know?
Result :: 1.0

Query :: Note, next up: Cc1c(F)c(N2C[C@H]3C[C@@H]2[C@H](C)N3)nc2c1c(=O)c(C(=O)O)cn2C1CC1.Cl
Result :: 1.0

###

test: Peak concentration in blood after intravenous administration to mice; format: ADME, organism-based; design: route intravenous; conditions: mouse
Flag rule - Cmax less than 20000 ng/mL flags T; the remaining entries get F.

Observe how each entry below is paired with its result.
[
  {
    "test_smiles": "Cc1c(F)c(N2C[C@H]3C[C@@H]2[C@H](C)N3)nc2c1c(=O)c(C(=O)O)cn2C1CC1.Cl",
    "classification": "T"
  },
  {
    "test_smiles": "Cc1c(F)c(N2C[C@H]3C[C@@H]2CN3)nc2c1c(=O)c(C(=O)O)cn2C1CC1",
    "classification": "T"
  },
  {
    "test_smiles": "C[C@H]1N[C@@H]2C[C@H]1N(c1nc3c(cc1F)c(=O)c(C(=O)O)cn3C(C)(C)C)C2.Cl",
    "classification": "F"
  }
]

Moving on to another molecule below.
Query :: Hi there! Is Cmax for C[C@H]1[C@H]2C[C@H](CN2)N1c1nc2c(cc1F)c(=O)c(C(=O)O)cn2C(C)(C)C.Cl below 20000 ng/mL, do you know?
Result :: F

###

I'd be grateful if you could share measured MIC for these entries.
tested on: Escherichia coli; test: In vitro antibacterial activity against Escherichia coli A15119; format: functional
Answers are plain numbers, in µg/mL.

Example entries begin here.
[
  {
    "test_smiles": "CC(C)(C)n1cc(C(=O)O)c(=O)c2cc(F)c(N3C[C@H]4C[C@]3(C)CN4)nc21.Cl",
    "tested_target": "Escherichia coli",
    "MIC [µg/mL]": 0.25
  },
  {
    "test_smiles": "Cc1c(F)c(N2C[C@H]3C[C@@H]2[C@H](C)N3)nc2c1c(=O)c(C(=O)O)cn2C1CC1.Cl",
    "tested_target": "Escherichia coli",
    "MIC [µg/mL]": 0.004
  },
  {
    "test_smiles": "C[C@@H]1[C@H]2C[C@H](CN2)N1c1nc2c(cc1F)c(=O)c(C(=O)O)cn2C(C)(C)C.Cl",
    "tested_target": "Escherichia coli",
    "MIC [µg/mL]": 0.016
  }
]

Query :: Give its MIC value. Item: Cc1c(F)c(N2C[C@H]3C[C@@H]2[C@H](C)N3)nc2c1c(=O)c(C(=O)O)cn2C(C)(C)C.Cl
Result :: 0.03

###

tested on: Mus musculus; assay: Area under curve measured as conc vs time after peroral administration to mice.; type: ADME, organism-based; set-up: unit not given here; conditions: in vivo, po
Threshold rule: AUC greater than or equal to 30 is class 1; below that, class 0.

Query :: Reported AUC at or above 30? Cc1c(F)c(N2C[C@H]3C[C@@H]2[C@H](C)N3)nc2c1c(=O)c(C(=O)O)cn2C1CC1.Cl
Result :: class 1

Query :: Note, next up: C[C@H]1[C@H]2C[C@H](CN2)N1c1nc2c(cc1F)c(=O)c(C(=O)O)cn2C(C)(C)C.Cl
Result :: class 0

Query :: Note, next up: C[C@H]1N[C@@H]2C[C@H]1N(c1nc3c(cc1F)c(=O)c(C(=O)O)cn3C(C)(C)C)C2.Cl
Result :: class 0

###

experiment: Acute toxicity after intravenous administration to mice; assay type: organism-based; conditions: mouse, in vivo
I'd be grateful if you could share measured LD50 for these entries.
Numbers only, in mg/kg.

[
  {
    "test_smiles": "C[C@@H]1N[C@@H]2C[C@H]1N(c1nc3c(cc1F)c(=O)c(C(=O)O)cn3C(C)(C)C)C2.Cl",
    "LD50, mg/kg": 263
  },
  {
    "test_smiles": "CN1C[C@H]2C[C@@H]1CN2c1nc2c(cc1F)c(=O)c(C(=O)O)cn2C(C)(C)C",
    "LD50, mg/kg": 188
  },
  {
    "test_smiles": "Cc1c(F)c(N2C[C@H]3C[C@@H]2CN3)nc2c1c(=O)c(C(=O)O)cn2C1CC1",
    "LD50, mg/kg": 125
  }
]

# ---- query compound ----
Query :: Give its LD50 value. Item: CC(C)(C)n1cc(C(=O)O)c(=O)c2cc(F)c(N3C[C@H]4C[C@@H]3CN4)nc21
Result :: 303

###

test system: Escherichia coli; assay: In vitro antibacterial activity against Escherichia coli A15119; format: functional
measured_property: MIC (µg/mL)
Answers are plain numbers, in µg/mL.

[
  {
    "test_smiles": "Cc1c(F)c(N2[C@H]3CN[C@H](C3)[C@H]2C)nc2c1c(=O)c(C(=O)O)cn2C1CC1.Cl",
    "MIC (µg/mL)": 0.016
  }
]

# batch size: 8; output MIC per entry
1. C[C@@H]1N[C@@H]2C[C@H]1N(c1nc3c(cc1F)c(=O)c(C(=O)O)cn3-c1ccc(F)cc1F)C2.Cl
2. C[C@@H]1N[C@@H]2C[C@H]1N(c1nc3c(cc1F)c(=O)c(C(=O)O)cn3C(C)(C)C)C2.Cl
3. CN1C[C@H]2C[C@@H]1CN2c1nc2c(cc1F)c(=O)c(C(=O)O)cn2C(C)(C)C
4. C[C@H]1[C@H]2C[C@H](CN2)N1c1nc2c(cc1F)c(=O)c(C(=O)O)cn2C(C)(C)C.Cl
5. CC(C)(C)n1cc(C(=O)O)c(=O)c2cc(F)c(N3C[C@H]4C[C@@H]3CN4)nc21
6. C[C@H]1N[C@@H]2C[C@H]1N(c1nc3c(cc1F)c(=O)c(C(=O)O)cn3C(C)(C)C)C2.Cl
7. Cc1c(F)c(N2C[C@H]3C[C@@H]2[C@@H](C)N3)nc2c1c(=O)c(C(=O)O)cn2C1CC1.Cl
8. CC(C)(C)n1cc(C(=O)O)c(=O)c2cc(F)c(N3C[C@@]4(C)C[C@@H]3CN4)nc21.Cl

Result ::
1. 0.03
2. 0.008
3. 0.25
4. 0.03
5. 0.008
6. 0.03
7. 0.016
8. 0.03

# batch size: 2; output MIC per entry
1. Cc1c(F)c(N2C[C@H]3C[C@@H]2CN3)nc2c1c(=O)c(C(=O)O)cn2C1CC1
2. Cc1c(F)c(N2[C@H]3CN[C@H](C3)[C@@H]2C)nc2c1c(=O)c(C(=O)O)cn2C1CC1.Cl

Result ::
1: 0.02; 2: 0.016
